assaySummary: Plasma concentration in collagen-induced Lewis rat arthritic model at 1 mg/kg, po qd measured at 8 hrs
Type: ADME, organism-based
Set-up: dose 1 mg/kg, route oral
readoutKind: concentration at 8 h
Include the unit right after the number.

Sample `Cc1cc(C)nc(Nc2cc(N[C@@H]3CCCC[C@@H]3N)cnc2C(N)=O)c1` ; concentration at 8 h observed: 90 nM

====

assaySummary: Plasma concentration in collagen-induced Lewis rat arthritic model at 1 mg/kg, po qd measured at 2 hrs
Assay type: ADME, organism-based
Set-up: dose 1 mg/kg, route oral
readoutKind: concentration at 2 h (nM)
Answer in nM, number only, no unit symbol.

Sample `Cc1cc(C)nc(Nc2cc(N[C@@H]3CCCC[C@@H]3N)cnc2C(N)=O)c1` ; concentration at 2 h observed: 40

====

assaySummary: Plasma concentration in collagen-induced Lewis rat arthritic model at 1 mg/kg, po qd measured at 24 hrs
Assay type: ADME, organism-based
Parameters: dose 1 mg/kg, route oral
readoutKind: concentration at 24 h (nM)
Answer in nM, number only, no unit symbol.

Sample `Cc1cc(C)nc(Nc2cc(N[C@@H]3CCCC[C@@H]3N)cnc2C(N)=O)c1` ; concentration at 24 h observed: 5

====

assaySummary: Plasma concentration in collagen-induced Lewis rat arthritic model at 3 mg/kg, po qd measured at 8 hrs
Type: ADME, organism-based
Parameters: dose 3 mg/kg, route oral
readoutKind: concentration at 8 h (nM)
Answer in nM, number only, no unit symbol.

Sample `Cc1cc(C)nc(Nc2cc(N[C@@H]3CCCC[C@@H]3N)cnc2C(N)=O)c1` ; concentration at 8 h observed: 100

====

Tested on: Plasma
assaySummary: Plasma concentration in collagen-induced Lewis rat arthritic model at 3 mg/kg, po qd measured immediately post compound dosing
Format: ADME, organism-based
Set-up: dose 3 mg/kg, route oral
conditionNotes: in vivo
readoutKind: concentration (nM)
Answer in nM, number only, no unit symbol.

Sample `Cc1cc(C)nc(Nc2cc(N[C@@H]3CCCC[C@@H]3N)cnc2C(N)=O)c1` ; concentration observed: 7

====

assaySummary: Plasma concentration in collagen-induced Lewis rat arthritic model at 10 mg/kg, po qd measured at 8 hrs
Format: ADME, organism-based
Design: dose 10 mg/kg, route oral
readoutKind: concentration at 8 h (µM)
Answer in µM, number only, no unit symbol.

Sample `Cc1cc(C)nc(Nc2cc(N[C@@H]3CCCC[C@@H]3N)cnc2C(N)=O)c1` ; concentration at 8 h observed: 0.5

====

assaySummary: Plasma concentration in collagen-induced Lewis rat arthritic model at 1 mg/kg, po qd measured at 4 hrs
Format: ADME, organism-based
Design: dose 1 mg/kg, route oral
readoutKind: concentration at 4 h (nM)
Answer in nM, number only, no unit symbol.

Sample `Cc1cc(C)nc(Nc2cc(N[C@@H]3CCCC[C@@H]3N)cnc2C(N)=O)c1` ; concentration at 4 h observed: 100

====

assaySummary: Plasma concentration in collagen-induced Lewis rat arthritic model at 3 mg/kg, po qd measured at 4 hrs
Assay type: ADME, organism-based
Set-up: dose 3 mg/kg, route oral
readoutKind: concentration at 4 h
Include the unit right after the number.

Sample `Cc1cc(C)nc(Nc2cc(N[C@@H]3CCCC[C@@H]3N)cnc2C(N)=O)c1` ; concentration at 4 h observed: 200 nM
